Listed here are variants together with their documented aptazyme ON/OFF ratio.
B1: Pistol ribozyme (parent)
chain: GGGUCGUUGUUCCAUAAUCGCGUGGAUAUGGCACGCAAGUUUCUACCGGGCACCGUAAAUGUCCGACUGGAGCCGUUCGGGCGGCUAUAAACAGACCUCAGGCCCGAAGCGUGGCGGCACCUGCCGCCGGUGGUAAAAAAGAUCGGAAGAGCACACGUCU

variants of: B1; experiment: aptazyme ON/OFF ratio, guanine; higher = stronger switching; co-transcriptional cleavage with and without guanine
Form field (numeric): enter value without unit.

Lookup: I have this variant here, U8A G9A U10C C12U C13G , and I need its recorded aptazyme ON/OFF ratio.
Found: 1.26
